Test system: HEK-293T
Experiment: Multiplex assay against HEK293T
Format: toxicity, cell-based
Details: human, 48 h, 10 µM, compound concentration 10 uM, replicate 2
Criterion: Total Cell Count meeting or surpassing 500. Met: 1.0. Not met: 0.0.

As a guide, the following entries are already answered.
| molecule | category |
| --- | --- |
| O=c1ccc2ccc(OCCCCN3CCN(c4cccc5sccc45)CC3)cc2[nH]1 [BREXPIPRAZOLE] | 0.0 |
| Cn1cc(C(=O)OCC2CCN(CCNS(C)(=O)=O)CC2)c2ccccc21 | 1.0 |
| Cl.Cl.OCCOCCN1CCN(C(c2ccccc2)c2ccc(Cl)cc2)CC1 (configuration not stated) [HYDROXYZINE HYDROCHLORIDE] | 1.0 |
| COc1cc2nc(N3CCN(C(=O)COc4c(OC)cccc4C(C)C)CC3)nc(N)c2cc1OC.Cl.Cl | 0.0 |
| COCCCN1CCC(NC(=O)c2cc(Cl)c(N)c3c2OCC3)CC1 [PRUCALOPRIDE] | 1.0 |
| CC(C)C[C@H](CO)Nc1nc(S[C@@H](C)c2ccccc2)nc2nc(N)sc12 [AZD-8797] | 1.0 |

Does the reported Total Cell Count for O=C(NCCNCC(O)COc1ccc(O)cc1)N1CCOCC1.O=C(NCCNCC(O)COc1ccc(O)cc1)N1CCOCC1.O=C(O)/C=C/C(=O)O (configuration not stated) [XAMOTEROL FUMARATE] fall at or above the 500 mark?
1.0
